Test system: 616215-338-R-J1-PDC complex spheroid viability
Experiment: Anticancer human tumor 616215-338-R-J1-PDC patient-derived colon adenocarcinoma cell line growth inhibition [RAS]
Conditions: second compound 0.316 µM; first compound 10 µM; stronger effect = lower value
Reported viability, T/C is given for each of the following molecules.
Kindly answer with a numeric value in %, unit omitted.

# example entries with known answers
Exercise: Quote 616215-338-R-J1-PDC complex spheroid viability viability, T/C for entry CC1(O)CCCC1n1c(=O)c(C(F)F)cc2cnc(NC3CCN(S(C)(=O)=O)CC3)nc21 (centres undefined) + C#Cc1c(F)ccc2cc(O)cc(-c3ncc4c(N5CC6CCC(C5)N6)nc(OCC56CCCN5CC(F)C6)nc4c3F)c12 .
Key: 2.34

Exercise: Quote 616215-338-R-J1-PDC complex spheroid viability viability, T/C for entry CC(=O)OC12COC1CC(O)C1(C)C(=O)C(O)C3=C(C)C(OC(=O)C(O)C(NC(=O)OC(C)(C)C)c4ccccc4)CC(O)(C(OC(=O)c4ccccc4)C21)C3(C)C (centres undefined) + C=CC(=O)N1CCN(c2nc(OCC3CCCN3C)nc3c(F)c(-c4nc(N)cc(C)c4C(F)(F)F)c(Cl)cc23)C(C)C1 .
Key: 23.9

Exercise: Quote 616215-338-R-J1-PDC complex spheroid viability viability, T/C for entry CC(C)NCC(C(=O)N1CCN(c2ncnc3c2C(C)CC3O)CC1)c1ccc(Cl)cc1 (centres undefined) + C#Cc1c(F)ccc2cc(O)cc(-c3ncc4c(N5CC6CCC(C5)N6)nc(OCC56CCCN5CC(F)C6)nc4c3F)c12 .
Key: 42

Here's the next entry for you.
Exercise: Quote 616215-338-R-J1-PDC complex spheroid viability viability, T/C for entry C[C@@H](NC(=O)c1ncnc(N)c1Cl)c1ncc(C(=O)Nc2cc(C(F)(F)F)c(Cl)cn2)s1 + C#Cc1c(F)ccc2cc(O)cc(-c3ncc4c(N5CC6CCC(C5)N6)nc(OCC56CCCN5CC(F)C6)nc4c3F)c12 .
Key: 49

###

Reported pIC50 is given for each of the following compounds.
Test system: 616215-338-R-J1-PDC complex spheroid viability
Assay: Anticancer human tumor 616215-338-R-J1-PDC cell line growth inhibition [RAS];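 note: spheroids exposed to agents for seven days before viability readout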
Conditions: curve of first compound; second compound 0.0949 µM
pIC50: −log10 of the molar value.

# example entries with known answers
Exercise: Quote 616215-338-R-J1-PDC complex spheroid viability pIC50 for entry CC1(C)CCC(Nc2ncc(C(F)(F)F)c(-c3c[nH]c4c(P(C)(C)=O)c(C#N)ccc34)n2)CN1 (centres undefined) + CCn1c(-c2cc(N3CCN(C)CC3)cnc2C(C)OC)c2c3cc(ccc31)-c1csc(n1)CC(NC(=O)C1CC1C)C(=O)N1CCCC(N1)C(=O)OCC(C)(C)C2 .
Key: > 9.02

Exercise: Quote 616215-338-R-J1-PDC complex spheroid viability pIC50 for entry CCC(CC)c1cc(NC2CCC(N)C2)n2nccc2n1 (centres undefined) + CCn1c(-c2cc(N3CCN(C)CC3)cnc2C(C)OC)c2c3cc(ccc31)-c1csc(n1)CC(NC(=O)C1CC1C)C(=O)N1CCCC(N1)C(=O)OCC(C)(C)C2 .
Key: > 7.50

Exercise: Quote 616215-338-R-J1-PDC complex spheroid viability pIC50 for entry Cc1nc(N2CCC3(CC2)COC(C)C3N)c(CO)nc1Sc1ccnc(N)c1Cl (centres undefined) + CCn1c(-c2cc(N3CCN(C)CC3)cnc2C(C)OC)c2c3cc(ccc31)-c1csc(n1)CC(NC(=O)C1CC1C)C(=O)N1CCCC(N1)C(=O)OCC(C)(C)C2 .
Key: > 7.50

Here's the next entry for you.
Exercise: Quote 616215-338-R-J1-PDC complex spheroid viability pIC50 for entry C=CC(=O)N1CCN(c2nc(OCC3CCCN3C)nc3c(F)c(-c4nc(N)cc(C)c4C(F)(F)F)c(Cl)cc23)C(C)C1 (centres undefined) + CCn1c(-c2cc(N3CCN(C)CC3)cnc2C(C)OC)c2c3cc(ccc31)-c1csc(n1)CC(NC(=O)C1CC1C)C(=O)N1CCCC(N1)C(=O)OCC(C)(C)C2 .
Key: > 8.50
